# System: CRFK cells
# ASSAY_EXPLANATION: Cell viability assay (MTT, Cell Proliferation Kit I)
# Assay type: cell-based, feline
# SETTINGS: cat, 48 h
READOUT: CC50 (µM)
Could you give me the number in µM? Just the number is fine.

query: Consider the compound shown here: `N#CC[C@H](C1CCCC1)n1cc(-c2ncnc3[nH]ccc23)cn1` What is its recorded CC50?
result: 338

---

# Tested on: FIPV serotype II strain (WSU-79-1146)
# ASSAY_EXPLANATION: Antiviral efficacy against FIPV replication in CRFK cells, viral load by qRT-PCR
# Assay type: cell-based, feline infectious peritonitis virus
# SETTINGS: read-out: 50% effective concentration (EC50) against FIPV replication; CRFK cells, FIPV […] 10^4 TCID50/mL, 48 h, qRT-PCR
READOUT: EC50 (nM)
Could you give me the number in nM? Just the number is fine.

query: Query EC50 on FIPV serotype II strain (WSU-79-1146) for CC(C)(C)[C@H](NC(=O)C(F)(F)F)C(=O)N1C[C@H]2[C@@H]([C@H]1C(=O)N[C@H](C#N)C[C@@H]1CCNC1=O)C2(C)C [Nirmatrelvir]
result: 2500

---

# ASSAY_EXPLANATION: Cell viability assay (MTT, Cell Proliferation Kit I)
# Assay type: cell-based, feline
# SETTINGS: cat, 50% cytotoxic concentration (CC50)
# Experimental: The Crandell-Reese feline kidney (CRFK) cells utilized in this study were purchased from American Type Culture Collection (ATCC, Manassas, VA, USA), and cultured in Eagle’s Minimum Essential Medium (EMEM) medium supplemented with 10% fetal bovine serum (FBS), 1% antibiotics (penicillin and streptomycin), and 1% non-essential amino acids. The reagents were obtained from ATCC. The CRFK cells were incubated at 37 °C with 5% CO2. […]
READOUT: CC50 at 48 h (µM)
Could you give me the number in µM? Just the number is fine.

query: Consider the molecule shown here: N#CC[C@H](C1CCCC1)n1cc(-c2ncnc3[nH]ccc23)cn1 [Ruxolitinib] What is its recorded CC50 at 48 h?
result: 338

---

# Test system: CRFK cells
# ASSAY_EXPLANATION: Cell viability assay (MTT, Cell Proliferation Kit I)
# Type: cell-based, feline
# SETTINGS: CRFK cells treated with drugs for 48 h; MTT assay (Figure 5); read-out: 50% cytotoxic concentration (CC50)
Give measured CC50 for each item. Keep answers brief.

query: Query CC50 on CRFK cells for `N#C[C@@]1(c2ccc3c(N)ncnn23)O[C@H](CO)[C@@H](O)[C@H]1O`
result: 260 µM

query: Also need `CC(C)C(=O)OC[C@H]1O[C@@H](n2ccc(NO)nc2=O)[C@H](O)[C@@H]1O` , thanks.
result: 235 µM

---

# Tested on: FIPV serotype II strain (WSU-79-1146)
# ASSAY_EXPLANATION: Antiviral efficacy against FIPV replication in CRFK cells, viral load by qRT-PCR
# Assay type: cell-based, feline infectious peritonitis virus
# SETTINGS: Alphacoronavirus 1, CRFK, 48 h, read-out: 50% effective concentration (EC50) against FIPV replication, CRFK cells, FIPV […] 10^4 TCID50/mL, 48 h, qRT-PCR
READOUT: EC50 (nM)
Could you give me the number in nM? Just the number is fine.

query: Consider the molecule shown here: CC(C)(C)[C@H](NC(=O)C(F)(F)F)C(=O)N1C[C@H]2[C@@H]([C@H]1C(=O)N[C@H](C#N)C[C@@H]1CCNC1=O)C2(C)C [Nirmatrelvir] What is its recorded EC50?
result: 2460

---

# ASSAY_EXPLANATION: Cell viability assay (MTT, Cell Proliferation Kit I)
# Assay type: cell-based, feline
# SETTINGS: cat, CRFK cells (Crandell-Reese feline kidney), CRFK cells treated with drugs for 48 h; MTT assay (Figure 5); read-out: 50% cytotoxic concentration (CC50)
READOUT: CC50 at 48 h (µM)
Could you give me the number in µM? Just the number is fine.

query: Consider the compound shown here: C/C(O)=C(\C#N)C(=O)Nc1ccc(C(F)(F)F)cc1 [Teriflunomide] What is its recorded CC50 at 48 h?
result: 134

query: Also need `CC(C)C(=O)OC[C@H]1O[C@@H](n2ccc(NO)nc2=O)[C@H](O)[C@@H]1O` , thanks.
result: 235

The measurements presented in this section are drawn from paper PMC10459838.
